The measured values listed here are drawn from patent EP0465716A1.

tested on: Acinetobacter calcoaceticus HNR 939; assay: MIC, twofold agar dilution method (clinically isolated strain); assay type: cell-based; details: HNR939; Acinetobacter calcoaceticus HNR 939, Gram -; 10^6 cfu/ml; 18 hrs at 37 °C
measurement.name: MIC (µg/mL)

1) CC1Sc2c(C(=O)O)c(=O)c3cc(F)c(N4CC[C@H](N)C4)c(F)c3n21 (single isomer, unassigned)    0.78
2) CC1Sc2c(C(=O)O)c(=O)c3cc(F)c(N4CCC(N)C4)cc3n21 (centres unmarked)    6.25
3) CC1Sc2c(C(=O)O)c(=O)c3cc(F)c(N4CC[C@@H](N)C4)c(F)c3n21 (single isomer, unassigned)    0.78
4) CC1Sc2c(C(=O)O)c(=O)c3cc(F)c(N4CC[C@H](N)C4)c(Cl)c3n21 (single isomer, unassigned)    0.78
5) CC1Sc2c(C(=O)O)c(=O)c3cc(F)c(N4CCNCC4)cc3n21 (centres unmarked)    6.25
6) CC1Sc2c(C(=O)O)c(=O)c3cc(F)c(N4CCNCC4)c(F)c3n21 (centres unmarked)    3.13
7) CC1Sc2c(C(=O)O)c(=O)c3cc(F)c(N4CC[C@@H](N)C4)c(Cl)c3n21 (single isomer, unassigned)    0.78

----------
test system: Enterobacter cloacae HNR 1946; assay: MIC, twofold agar dilution method (clinically isolated strain); format: cell-based; details: HNR1946; Enterobacter cloacae HNR 1946, Gram -; 10^6 cfu/ml; 18 hrs at 37 °C
measurement.name: MIC

1) CC1Sc2c(C(=O)O)c(=O)c3cc(F)c(N4CC[C@H](N)C4)c(F)c3n21 (single isomer, unassigned)    0.1 µg/mL
2) CC1Sc2c(C(=O)O)c(=O)c3cc(F)c(N4CCNCC4)c(F)c3n21 (centres unmarked)    0.39 µg/mL
3) CC1Sc2c(C(=O)O)c(=O)c3cc(F)c(N4CCNCC4)cc3n21 (centres unmarked)    0.39 µg/mL
4) NC1CCN(c2c(F)cc3c(=O)c(C(=O)O)c4n(c3c2F)CS4)C1 (centres unmarked)    1.56 µg/mL
5) CC1Sc2c(C(=O)O)c(=O)c3cc(F)c(N4CC[C@H](N)C4)c(Cl)c3n21 (single isomer, unassigned)    0.1 µg/mL
6) CC1Sc2c(C(=O)O)c(=O)c3cc(F)c(N4CC[C@@H](N)C4)c(F)c3n21 (single isomer, unassigned)    0.2 µg/mL
7) CC1Sc2c(C(=O)O)c(=O)c3cc(F)c(N4CC[C@@H](N)C4)c(Cl)c3n21 (single isomer, unassigned)    0.2 µg/mL
8) CC1Sc2c(C(=O)O)c(=O)c3cc(F)c(N4CCC(N)C4)cc3n21 (centres unmarked)    0.78 µg/mL

----------
system: Male mice of ddY strain; assay: Convulsion inducing activity in combination with fenbufen; conditions: 300 mg/kg (i.p.), thirty minutes after fenbufen 100 mg/kg orally
Where a name gives a salt, the structure may show the parent alone.
// reported Number of convulsion induced / Number of animals per item
measurement.name: Number of convulsion induced / Number of animals

1. CC1Sc2c(C(=O)O)c(=O)c3cc(F)c(N4CC[C@H](N)C4)c(Cl)c3n21 (single isomer, unassigned)    0 / 6
2. O=C(O)c1cn(C2CC2)c2cc(N3CCNCC3)c(F)cc2c1=O [Ref. Drug A, ciprofloxacin hydrochloride]    6 / 6
3. CC1Sc2c(C(=O)O)c(=O)c3cc(F)c(N4CCC(N)C4)cc3n21 (stereo not shown)    0 / 6
4. CC1Sc2c(C(=O)O)c(=O)c3cc(F)c(N4CC[C@H](N)C4)c(F)c3n21 (single isomer, unassigned)    0 / 6

----------
system: Acinetobacter calcoaceticus HNR 904; assay: MIC, twofold agar dilution method (clinically isolated strain); format: cell-based; conditions: HNR904; Acinetobacter calcoaceticus HNR 904, Gram -; 10^6 cfu/ml; 18 hrs at 37 °C
// reported MIC per item
measurement.name: MIC (µg/mL)

1) CC1Sc2c(C(=O)O)c(=O)c3cc(F)c(N4CC[C@@H](N)C4)c(F)c3n21 (single isomer, unassigned)    25
2) CC1Sc2c(C(=O)O)c(=O)c3cc(F)c(N4CCNCC4)c(F)c3n21 (stereo not shown)    25
3) CC1Sc2c(C(=O)O)c(=O)c3cc(F)c(N4CC[C@@H](N)C4)c(Cl)c3n21 (single isomer, unassigned)    12.5

----------
system: Enterobacter cloacae 963; experiment: MIC, twofold agar dilution method (standard laboratory strain); assay type: cell-based; settings: Enterobacter cloacae 963, Gram -; 10^6 cfu/ml; 18 hrs at 37 °C
measurement.name: MIC

1. CC1Sc2c(C(=O)O)c(=O)c3cc(F)c(N4CCNCC4)cc3n21 (stereo not shown)    0.05 µg/mL
2. CC1Sc2c(C(=O)O)c(=O)c3cc(F)c(N4CC[C@@H](N)C4)c(Cl)c3n21 (single isomer, unassigned)    0.05 µg/mL
3. NC1CCN(c2c(F)cc3c(=O)c(C(=O)O)c4n(c3c2F)CS4)C1 (stereo not shown)    0.1 µg/mL
4. CC1Sc2c(C(=O)O)c(=O)c3cc(F)c(N4CC[C@@H](N)C4)c(F)c3n21 (single isomer, unassigned)    0.05 µg/mL

----------
system: Pseudomonas aeruginosa HNR 1537; assay: MIC, twofold agar dilution method (clinically isolated strain); format: cell-based; conditions: HNR1537; Pseudomonas aeruginosa HNR 1537, Gram -; 10^6 cfu/ml; 18 hrs at 37 °C
// reported MIC per item
measurement.name: MIC (mg/L)

1) CC1Sc2c(C(=O)O)c(=O)c3cc(F)c(N4CC[C@H](N)C4)c(F)c3n21 (single isomer, unassigned)    3.13
2) CC1Sc2c(C(=O)O)c(=O)c3cc(F)c(N4CC[C@@H](N)C4)c(Cl)c3n21 (single isomer, unassigned)    6.25
3) CC1Sc2c(C(=O)O)c(=O)c3cc(F)c(N4CCNCC4)c(F)c3n21 (centres unmarked)    12.5
4) CC1Sc2c(C(=O)O)c(=O)c3cc(F)c(N4CC[C@H](N)C4)c(Cl)c3n21 (single isomer, unassigned)    1.56
5) CC1Sc2c(C(=O)O)c(=O)c3cc(F)c(N4CC[C@@H](N)C4)c(F)c3n21 (single isomer, unassigned)    6.25
6) CC1Sc2c(C(=O)O)c(=O)c3cc(F)c(N4CCC(N)C4)cc3n21 (centres unmarked)    1.56
7) CC1Sc2c(C(=O)O)c(=O)c3cc(F)c(N4CCNCC4)cc3n21 (centres unmarked)    6.25

----------
// reported Number of convulsion induced / Number of animals per item
tested on: Male mice of ddY strain; assay: Convulsion inducing activity in combination with fenbufen; settings: 100 mg/kg (i.p.), thirty minutes after fenbufen 100 mg/kg orally
Counter-ions that a name gives are not always drawn.
measurement.name: Number of convulsion induced / Number of animals

1) CC1Sc2c(C(=O)O)c(=O)c3cc(F)c(N4CCC(N)C4)cc3n21 (centres unmarked)    0 / 6
2) CC1Sc2c(C(=O)O)c(=O)c3cc(F)c(N4CCNCC4)c(F)c3n21 (centres unmarked)    6 / 6
3) CC1Sc2c(C(=O)O)c(=O)c3cc(F)c(N4CC[C@H](N)C4)c(F)c3n21 (single isomer, unassigned)    0 / 6
4) O=C(O)c1cn(C2CC2)c2cc(N3CCNCC3)c(F)cc2c1=O [Ref. Drug A, ciprofloxacin hydrochloride]    4 / 6
5) CC1Sc2c(C(=O)O)c(=O)c3cc(F)c(N4CC[C@H](N)C4)c(Cl)c3n21 (single isomer, unassigned)    0 / 6

----------
system: Escherichia coli NIHJ JC-2; experiment: MIC, twofold agar dilution method (standard laboratory strain); assay type: cell-based; settings: NIHJJC2; Escherichia coli NIHJ JC-2, Gram -; 10^6 cfu/ml; 18 hrs at 37 °C
measurement.name: log10 of MIC (log10 of the value in µg/mL)

1. CC1Sc2c(C(=O)O)c(=O)c3cc(F)c(N4CC[C@H](N)C4)c(F)c3n21 (single isomer, unassigned)    -2.22
2. CC1Sc2c(C(=O)O)c(=O)c3cc(F)c(N4CCNCC4)c(F)c3n21 (centres unmarked)    -1.30
3. CC1Sc2c(C(=O)O)c(=O)c3cc(F)c(N4CC[C@@H](N)C4)c(Cl)c3n21 (single isomer, unassigned)    -1.60
4. NC1CCN(c2c(F)cc3c(=O)c(C(=O)O)c4n(c3c2F)CS4)C1 (centres unmarked)    -1.00
5. CC1Sc2c(C(=O)O)c(=O)c3cc(F)c(N4CCNCC4)cc3n21 (centres unmarked)    -1.60
6. CC1Sc2c(C(=O)O)c(=O)c3cc(F)c(N4CC[C@@H](N)C4)c(F)c3n21 (single isomer, unassigned)    -1.60
7. CC1Sc2c(C(=O)O)c(=O)c3cc(F)c(N4CCC(N)C4)cc3n21 (centres unmarked)    -1.30
8. CC1Sc2c(C(=O)O)c(=O)c3cc(F)c(N4CC[C@H](N)C4)c(Cl)c3n21 (single isomer, unassigned)    -1.92
